# test_system: Dual specificity protein phosphatase 6 (Homo sapiens)
# method: DUSP6 inhibitors restoring Erk phosphorylation by chemical complementation, primary imaging in DUSP6-transfected HeLa (AID 609);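 further: phospho-Erk level distribution per well compared with pooled transfected vehicle control wells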
# recorded_conditions: HeLa MKP-3 transfected, phospho-Erk imaging KS statistic; at 10 µM; stronger effect = higher value; cells stimulated with TPA for 15 min
parameter: inhibition (%)
Numeric only. Scale: %

Please review the following examples before continuing.
{"columns": ["molecule", "display_unit", "inhibition"],
 "data": [
  ["CCc1nc(NCCN2CCOCC2)c(C#N)c2c1CCCC2", "%", 11.4],
  ["CC(C)OC(=O)CCNc1n[nH]c(=O)[nH]c1=O", "%", -4.27]
]}

IN: Query: inhibition; subject: COC(=O)CC(=O)Cc1nc(N)nc(Nc2ccc(C)c(C)c2)n1
OUT: -0.233

IN: Name the recorded inhibition for OCCN=C(c1ccccc1)C12CN3CN(CN(C3)C1)C2 .
OUT: 15.4

IN: Quick check: inhibition of CC12CN3CC(C)(CN(C1)C3c1ccc(Br)cc1O)C2 (centres undefined) ?
OUT: 5.42
